# Assay Protocol: Permeability in buffer of pH 7.4 by PAMPA
# Format: ADME
Reported Endpoint: permeability (%)

// solved cases for permeability follow
CCCN(C(=O)C(C)c1cccc(C(=O)c2ccccc2)c1)c1ccc2cc[nH]c2c1 (stereo unspecified) : 80
CC(C(=O)NCCc1ccc(O)cc1)c1cccc(C(=O)c2ccccc2)c1 (stereo unspecified) : 92

1. CC(CNC(=O)c1ccc2[nH]ccc2c1)c1cccc(C(=O)c2ccccc2)c1 (stereo unspecified)
2. CC(C(=O)Nc1ccc2cc[nH]c2c1)c1cccc(C(=O)c2ccccc2)c1 (stereo unspecified)
3. CNC(=C[N+](=O)[O-])NCCSCc1ccc(CN(C)C)o1
Sort by permeability, descending. Output spec: labels arranged per the requested ranking. 2, 1, 3
(2: 75%, 1: 47%, 3: 2%)

====

# Assay Protocol: Permeability in buffer of pH 7.4 by PAMPA
# Assay type: ADME
# Stated Conditions: read-out: permeability
Reported Endpoint: Papp (×10⁻⁶ cm/s)

CC(CNC(=O)c1ccc2[nH]ccc2c1)c1cccc(C(=O)c2ccccc2)c1 (centres undefined) : 52.1
CC(C(=O)Nc1ccc2cc[nH]c2c1)c1cccc(C(=O)c2ccccc2)c1 (centres undefined) : 77.8
CC(C(=O)NCCc1ccc(O)cc1)c1cccc(C(=O)c2ccccc2)c1 (centres undefined) : 60.2
CCCN(C(=O)C(C)c1cccc(C(=O)c2ccccc2)c1)c1ccc2cc[nH]c2c1 (centres undefined) : 71.4

====

# Measured Target: Zinc finger protein GLI1 (Homo sapiens) (UniProt P08151)
# Sequence (whole entry): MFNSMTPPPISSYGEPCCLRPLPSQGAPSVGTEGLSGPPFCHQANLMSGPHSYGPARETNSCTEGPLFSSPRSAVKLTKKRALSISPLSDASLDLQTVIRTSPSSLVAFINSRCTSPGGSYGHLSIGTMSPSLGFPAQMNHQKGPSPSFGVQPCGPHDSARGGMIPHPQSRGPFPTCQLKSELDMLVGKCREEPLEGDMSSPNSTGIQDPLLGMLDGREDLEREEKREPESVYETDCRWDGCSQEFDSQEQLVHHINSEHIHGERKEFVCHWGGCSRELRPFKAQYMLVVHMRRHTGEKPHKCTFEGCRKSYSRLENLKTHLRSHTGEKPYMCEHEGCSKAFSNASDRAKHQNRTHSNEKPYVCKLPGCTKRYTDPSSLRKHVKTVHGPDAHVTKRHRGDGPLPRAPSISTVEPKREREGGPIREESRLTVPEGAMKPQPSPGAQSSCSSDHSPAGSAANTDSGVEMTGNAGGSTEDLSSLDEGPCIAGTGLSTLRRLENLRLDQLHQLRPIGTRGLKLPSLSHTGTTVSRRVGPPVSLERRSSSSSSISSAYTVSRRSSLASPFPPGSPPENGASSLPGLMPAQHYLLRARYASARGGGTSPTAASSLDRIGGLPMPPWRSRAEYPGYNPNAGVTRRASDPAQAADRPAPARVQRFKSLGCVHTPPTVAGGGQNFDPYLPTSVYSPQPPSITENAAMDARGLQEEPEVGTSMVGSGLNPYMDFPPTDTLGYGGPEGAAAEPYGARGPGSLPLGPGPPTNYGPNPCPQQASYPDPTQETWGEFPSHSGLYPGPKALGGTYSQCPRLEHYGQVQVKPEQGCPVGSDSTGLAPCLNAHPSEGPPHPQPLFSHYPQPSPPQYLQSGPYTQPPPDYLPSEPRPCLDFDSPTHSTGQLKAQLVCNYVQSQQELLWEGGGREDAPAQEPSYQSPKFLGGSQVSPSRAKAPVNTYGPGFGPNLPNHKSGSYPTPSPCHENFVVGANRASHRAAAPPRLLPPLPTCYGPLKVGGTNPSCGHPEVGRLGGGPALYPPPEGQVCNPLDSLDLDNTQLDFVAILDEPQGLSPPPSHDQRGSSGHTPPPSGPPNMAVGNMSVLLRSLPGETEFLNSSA
# Assay Protocol: Inhibition of human Gli1 expressed in mouse C3H10T1/2 cells assessed as inhibition of transcriptional activity at 10 to 20 uM after 24 hrs by luciferase reporter gene assay
# Type: cell-based
# Stated Conditions: C3H 10T1/2
Calls of active or inactive are those of the source. The rule behind the calls is not given here.
In this exercise, the only acceptable responses are true = active, false = inactive

Reference set (6 entries):
CC(CNC(=O)c1c[nH]c2ccccc12)c1cccc(C(=O)c2ccccc2)c1 (configuration not stated) : true
CC(CNC(=O)c1cc2ccccc2[nH]1)c1cccc(C(=O)c2ccccc2)c1 (configuration not stated) : true
CC(CNC(=O)c1cccc2cc[nH]c12)c1cccc(C(=O)c2ccccc2)c1 (configuration not stated) : true
CC(CNC(=O)c1ccc2cc[nH]c2c1)c1cccc(C(=O)c2ccccc2)c1 (configuration not stated) : true
CC(CNC(=O)c1ccc2[nH]ccc2c1)c1cccc(C(=O)c2ccccc2)c1 (configuration not stated) : true
CC(CNC(=O)c1cccc2[nH]ccc12)c1cccc(C(=O)c2ccccc2)c1 (configuration not stated) : true

We next turn to a different molecule, shown below.
Look up the recorded call for CC(CNC(=O)Cc1ccc2[nH]ccc2c1)c1cccc(C(=O)c2ccccc2)c1 (configuration not stated) in this test. false
